Data provenance: patent US20210238260

Field: % of WT kcat/KM. Provide a value for each of the proteins that follow.
# target: Factor X (FX), P00742
# Sequence (P00742 whole entry, looked up): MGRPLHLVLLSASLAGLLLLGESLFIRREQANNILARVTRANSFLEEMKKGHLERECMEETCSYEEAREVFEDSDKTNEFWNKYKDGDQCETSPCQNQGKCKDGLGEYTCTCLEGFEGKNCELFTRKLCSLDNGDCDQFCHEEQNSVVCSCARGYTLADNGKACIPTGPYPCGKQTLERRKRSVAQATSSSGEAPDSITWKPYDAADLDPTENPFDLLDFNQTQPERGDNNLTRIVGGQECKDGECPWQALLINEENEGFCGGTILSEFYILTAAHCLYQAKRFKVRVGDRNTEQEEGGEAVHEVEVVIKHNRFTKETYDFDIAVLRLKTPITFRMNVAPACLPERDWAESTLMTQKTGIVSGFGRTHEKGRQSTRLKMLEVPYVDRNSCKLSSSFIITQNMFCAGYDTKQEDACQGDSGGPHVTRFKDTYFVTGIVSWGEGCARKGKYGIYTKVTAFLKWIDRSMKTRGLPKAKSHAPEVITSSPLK
Numbers only, in %.

Sample answers from the record:
protein | readout_units | % of WT kcat/KM
FIXa-Y155F/K247N/N249S/R318Y/R338E/T343R (protein) chain 1: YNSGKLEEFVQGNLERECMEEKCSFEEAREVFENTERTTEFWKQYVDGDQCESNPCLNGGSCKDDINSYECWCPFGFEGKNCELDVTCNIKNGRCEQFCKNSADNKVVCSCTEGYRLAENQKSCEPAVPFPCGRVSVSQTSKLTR chain 2: VVGGEDAKPGQFPWQVVLNGKVDAFCGGSIVNEKWIVTAAHCVETGVKITVVAGEHNIEETEHTEQNRSVIRIIPHHNYNAAINKYNHDIALLELDEPLVLNSYVTPICIADKEYTNIFLKFGSGYVSGWGRVFHKGYSALVLQYLRVPLVDRATCLESTKFRIYNNMFCAGFHEGGRDSCQGDSGGPHVTEVEGTSFLTGIISWGEECAMKGKYGIYTKVSRYVNWIKEKTKLT | % | 772
FIXa-Y155F/K247N/N249S/R318Y/R403E (protein) chain 1: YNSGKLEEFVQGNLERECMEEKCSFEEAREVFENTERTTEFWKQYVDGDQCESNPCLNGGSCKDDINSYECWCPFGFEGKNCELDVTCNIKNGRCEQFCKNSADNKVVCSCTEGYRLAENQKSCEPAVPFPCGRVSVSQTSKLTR chain 2: VVGGEDAKPGQFPWQVVLNGKVDAFCGGSIVNEKWIVTAAHCVETGVKITVVAGEHNIEETEHTEQNRSVIRIIPHHNYNAAINKYNHDIALLELDEPLVLNSYVTPICIADKEYTNIFLKFGSGYVSGWGRVFHKGYSALVLQYLRVPLVDRATCLRSTKFTIYNNMFCAGFHEGGRDSCQGDSGGPHVTEVEGTSFLTGIISWGEECAMKGKYGIYTKVSEYVNWIKEKTKLT | % | 34
FIXa-Y155F/K247N/N249S/R318Y/T343R (protein) chain 1: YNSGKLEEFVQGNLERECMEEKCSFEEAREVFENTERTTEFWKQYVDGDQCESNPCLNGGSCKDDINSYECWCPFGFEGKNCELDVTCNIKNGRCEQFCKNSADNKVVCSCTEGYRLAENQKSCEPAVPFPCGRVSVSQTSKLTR chain 2: VVGGEDAKPGQFPWQVVLNGKVDAFCGGSIVNEKWIVTAAHCVETGVKITVVAGEHNIEETEHTEQNRSVIRIIPHHNYNAAINKYNHDIALLELDEPLVLNSYVTPICIADKEYTNIFLKFGSGYVSGWGRVFHKGYSALVLQYLRVPLVDRATCLRSTKFRIYNNMFCAGFHEGGRDSCQGDSGGPHVTEVEGTSFLTGIISWGEECAMKGKYGIYTKVSRYVNWIKEKTKLT | % | 549

Turning to the following protein.
Consider the protein FIXa-Y155F/K247N/N249S/R403E/E410N (protein) chain 1: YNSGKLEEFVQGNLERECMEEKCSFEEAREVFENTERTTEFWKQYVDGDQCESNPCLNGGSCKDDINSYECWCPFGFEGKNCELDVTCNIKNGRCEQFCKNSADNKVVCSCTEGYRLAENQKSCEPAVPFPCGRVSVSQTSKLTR chain 2: VVGGEDAKPGQFPWQVVLNGKVDAFCGGSIVNEKWIVTAAHCVETGVKITVVAGEHNIEETEHTEQNRSVIRIIPHHNYNAAINKYNHDIALLELDEPLVLNSYVTPICIADKEYTNIFLKFGSGYVSGWGRVFHKGRSALVLQYLRVPLVDRATCLRSTKFTIYNNMFCAGFHEGGRDSCQGDSGGPHVTEVEGTSFLTGIISWGEECAMKGKYGIYTKVSEYVNWIKNKTKLT and give its measured % of WT kcat/KM.
53
